B1: tRNA (parent)
chain: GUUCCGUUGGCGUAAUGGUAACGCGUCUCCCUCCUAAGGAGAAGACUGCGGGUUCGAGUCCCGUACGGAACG

Variants of: B1
method: yeast fitness relative to wild type (ratio to wild type); higher = fitter; tRNA-Arg(CCU), competitive growth, 37 C, YPD
Fewer inactive variants are shown than the library holds.
// reported yeast fitness for each item listed
outcomeMeasure: yeast fitness

1. U2C U35C; 0.829
2. C27U G67A A69U; 0.692
3. G41C A69U A70U; 0.629
4. A45C C46G G68A; 0.678
5. G58C C62U; 0.893
6. G52C U64G; 0.614
7. U7G U35G; 0.536
8. C5G G25A A70C; 0.758
